test system: Streptomyces albus; test: Antibacterial activity against Streptomyces albus Del14 assessed as inhibition zone at 10 ug incubated for 2 days by disc diffusion assay; assay type: functional; conditions: Del14, 48 h, time 2 day, read-out: IZ
Reported zone of inhibition at 10 µg/disc is given for each of the following molecules.
A number alone suffices; assume mm.

- MOL SMILES: "C/C=C\\C=C\\[C@@H]1O[C@](O)([C@H](CC)C(=O)NC/C=C/C=C(\\C)[C@@H](OC)[C@@H](C)[C@H](O)[C@@H](O)\\C=C/C=C/C=C/C=C(\\C)C(=O)c2c(O)ccn(C)c2=O)[C@H](O)[C@H](O)C1(C)C"
  TARGET ENTITY: "Streptomyces albus"
  zone of inhibition at 10 µg/disc, mm: 15

// next entry
# returns recorded zone of inhibition at 10 µg/disc (system: Streptomyces albus) for `C/C=C\C=C\[C@@H]1O[C@](O)([C@@H](CC)C(=O)NC/C=C/C=C(\C)[C@H](OC)[C@H](C)[C@@H]2O[C@H](/C=C/C=C/C=C(\C)C(=O)c3c(O)ccn(C)c3=O)[C@@H](O)[C@H]2O)[C@H](O)[C@H](O[C@H]2O[C@@H](C)[C@H](O[C@@H]3O[C@@H](C)[C@H](O)[C@@H](O)[C@H]3OC)[C@H](OC)[C@@H]2O)C1(C)C`
15
